Can you tell me self-cleavage for the items I'm about to list?
B1: LINE1-mini (parent)
chain: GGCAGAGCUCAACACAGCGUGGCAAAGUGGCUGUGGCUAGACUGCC

- Variants of: B1
- assay.notes: self-cleavage, relative activity (ratio to wild type); higher = more cleavage; in vitro, sequencing; the parent is a self-cleaving ribozyme

Which measured self-cleavage value corresponds to GGCAGAGCUCAACACAGCGCGGCAAAGUGGCUGUGGCUAGACAGCC [U20C U43A] ?
0.05

Follow-up entry: GGCAGAGCUCAACACAGCGUGCGAAAGUGGCUGUGGCUAGACUGCC [G22C C23G]
0.28

Follow-up entry: GGCAGAGCUUAACACAGCGUGGCAACGUGGCUGUGGCUAGACUGCC [C10U A26C]
0.31

Follow-up entry: GGCAUAGCUCAACACAGCGUCGCAAAGUGGCUGUGGCUAGACUGCC [G5U G21C]
0.09

Follow-up entry: GGGAGAGCUCAACACUGCGUGGCAAAGUGGCUGUGGCUAGACUGCC [C3G A16U]
0.18

Follow-up entry: GGCAGAGCUCAACCCAGCGUGGCAAAGUGGCCGUGGCUAGACUGCC [A14C U32C]
0.08

Follow-up entry: GGCAGAGCUCAACACAGCGUGGGAAACUGGCUGUGGCUAGACUGCC [C23G G27C]
0.27

Follow-up entry: GGCAGAGCUCAACACCGCGUGGCAAAGUGGCUUUGGCUAGACUGCC [A16C G33U]
0.05

Follow-up entry: GGCAGAGCUGAACACAGCGUGGCAAAGUGGCUGUGGGUAGACUGCC [C10G C37G]
0.01

Follow-up entry: GGCAGAGCUCUACACAGCGUGGCAAAGUGGCUGUGGCUAGACAGCC [A11U U43A]
0.02

Follow-up entry: GGCAGAGCUCAACAUAGCGUGGCGAAGUGGCUGUGGCUAGACUGCC [C15U A24G]
1.53

Follow-up entry: GGCAGAGCUCAACACAGCGUGGCUAAGGGGCUGUGGCUAGACUGCC [A24U U28G]
0.39

Follow-up entry: GGCAGAGCUCAACACAGCGUGGCAAAGUGGCUGUGGCCAGCCUGCC [U38C A41C]
0.04

Follow-up entry: GGCAGAGCUCAACACAGCGUGGCAAAGUGGCAGUGGCUAGACUUCC [U32A G44U]
0.06

Follow-up entry: GGCAGAGCUCAACACAGCGUGGUAAAGUGGGUGUGGCUAGACUGCC [C23U C31G]
0.16

Follow-up entry: GGCAGAGCUCAACACAGCGUGGCAAAGUGGUUGCGGCUAGACUGCC [C31U U34C]
0.12

Follow-up entry: GGCAGAGCUCAACACAACGUGGCAAUGUGGCUGUGGCUAGACUGCC [G17A A26U]
0.21

Follow-up entry: GGCAGAGCUCAACACAGCGUGGCAAAUUGGCUGUGGCUAGAGUGCC [G27U C42G]
0.04

Follow-up entry: GGCAGAGCUCAACACUGCGUGGCCAAGUGGCUGUGGCUAGACUGCC [A16U A24C]
0.1

Follow-up entry: GGCAGCGCUCAACACAGCGUGGCAAAGUGGCUGUGGCGAGACUGCC [A6C U38G]
0.02

Follow-up entry: GGCAGAGGUCAACACAGCGUGGCAAAGUGGCUGUGGCUAGACUCCC [C8G G44C]
0.05

Values were extracted from the RNAGym collection of RNA variant scans (doi:10.7554/elife.90254).
